# Tested on: 60 different human tumor cell lines
# protocol.text: cells
# run.conditions: U-251
Rule: GI50 below 4000 nM gives T. Equal to or above 4000 nM gives F.

[ask] I'd appreciate it if you could check whether C[C@]12CCc3sc(Nc4cccc(O)c4)nc3C1=CC[C@@H]1[C@@H]2CC[C@]2(C)C(=O)CC[C@@H]12 has GI50 smaller than 4000 nM.
[reply] F

[ask] I'd appreciate it if you could check whether C[C@]12CC[C@H]3[C@@H](CC=C4c5sc(Nc6ccccc6)nc5CC[C@@]43C)[C@@H]1CC[C@@H]2O has GI50 smaller than 4000 nM.
[reply] T

[ask] I'd appreciate it if you could check whether C[C@]12CCc3sc(Nc4ccc(OC(F)(F)F)cc4)nc3C1=CC[C@@H]1[C@@H]2CC[C@]2(C)C(=O)CC[C@@H]12 has GI50 smaller than 4000 nM.
[reply] T

[ask] I'd appreciate it if you could check whether C[C@]12CC[C@H]3[C@@H](CC=C4c5sc(-c6ccc(O)cc6)nc5CC[C@@]43C)[C@@H]1CC[C@@H]2O has GI50 smaller than 4000 nM.
[reply] T

[ask] I'd appreciate it if you could check whether C[C@]12CCc3sc(NCCc4ccccc4)nc3C1=CC[C@@H]1[C@@H]2CC[C@]2(C)C(=O)CC[C@@H]12 has GI50 smaller than 4000 nM.
[reply] F

====

# Tested on: 60 different human tumor cell lines
# protocol.text: cells
# run.conditions: RXF 393
Rule: GI50 below 0.8 µM gives TRUE. Equal to or above 0.8 µM gives FALSE.

A selection of reference data follows.
C[C@]12CCc3sc(Nc4ccc(F)cc4F)nc3C1=CC[C@@H]1[C@@H]2CC[C@]2(C)C(=O)CC[C@@H]12    FALSE
C[C@]12CCc3sc(Nc4cccc(O)c4)nc3C1=CC[C@@H]1[C@@H]2CC[C@]2(C)C(=O)CC[C@@H]12    FALSE
C[C@]12CC[C@H]3[C@@H](CC=C4c5sc(-c6ccc(O)cc6)nc5CC[C@@]43C)[C@@H]1CC[C@@H]2O    TRUE

Turning to the following compound.
[ask] I'd appreciate it if you could check whether C[C@]12CCc3sc(NCCc4ccccc4)nc3C1=CC[C@@H]1[C@@H]2CC[C@]2(C)C(=O)CC[C@@H]12 has GI50 smaller than 0.8 µM.
[reply] FALSE

====

# Tested on: 60 different human tumor cell lines
# protocol.text: cells
# run.conditions: A549, read-out: LC50
Reported CC50 values for a set of compounds

Some solved entries appear below for comparison.
C[C@]12CC[C@H]3[C@@H](CC=C4c5sc(Nc6ccccc6)nc5CC[C@@]43C)[C@@H]1CC[C@@H]2O [IIIa.10]    46.2 µM
C[C@]12CC[C@H]3[C@@H](CC=C4c5sc(-c6ccc(O)cc6)nc5CC[C@@]43C)[C@@H]1CC[C@@H]2O [III.5]    > 100 µM

[ask] For C[C@]12CCc3sc(Nc4ccc(F)cc4F)nc3C1=CC[C@@H]1[C@@H]2CC[C@]2(C)C(=O)CC[C@@H]12 [IIa.10] , write its CC50.
[reply] > 100 µM

[ask] For C[C@]12CCc3sc(Nc4ccc(OC(F)(F)F)cc4)nc3C1=CC[C@@H]1[C@@H]2CC[C@]2(C)C(=O)CC[C@@H]12 [IIa.19] , write its CC50.
[reply] 73.5 µM

[ask] For C[C@]12CCc3sc(Nc4cccc(O)c4)nc3C1=CC[C@@H]1[C@@H]2CC[C@]2(C)C(=O)CC[C@@H]12 [IIa.17] , write its CC50.
[reply] > 100 µM

[ask] For C[C@]12CCc3sc(NCCc4ccccc4)nc3C1=CC[C@@H]1[C@@H]2CC[C@]2(C)C(=O)CC[C@@H]12 [IIa.2] , write its CC50.
[reply] > 100 µM

====

# Test system: 60 different human tumor cell lines
# run.conditions: read-out: LC50; SW-620 (Colon Cancer), five dose
Reported CC50 values for a set of compounds

C[C@]12CCc3nc(N)sc3C1=CC[C@@H]1[C@@H]2CC[C@]2(C)C(=NNC(N)=O)CC[C@@H]12    8.55 µM

[ask] Report CC50 from 60 different human tumor cell lines testing of C[C@]12CCc3nc(Nc4ccc(O)cc4)sc3C1=CC[C@@H]1[C@@H]2CC[C@]2(C)C(=O)CC[C@@H]12
[reply] > 100 µM

====

Reported GI50 values for a set of compounds
# Tested on: glioblastoma (SF-295)
# protocol.text: NCI 60 five dose screen
# run.conditions: Homo sapiens, SF-295
Answer format: value, then unit.

Some solved entries appear below for comparison.
C[C@]12CC[C@H]3[C@@H](CC=C4c5sc(Nc6ccccc6)nc5CC[C@@]43C)[C@@H]1CC[C@@H]2O [IIIa.10]    1.06 µM
C[C@]12CCc3sc(Nc4cccc(O)c4)nc3C1=CC[C@@H]1[C@@H]2CC[C@]2(C)C(=O)CC[C@@H]12 [IIa.17]    8.98 µM
C[C@]12CCc3sc(NCCc4ccccc4)nc3C1=CC[C@@H]1[C@@H]2CC[C@]2(C)C(=O)CC[C@@H]12 [IIa.2]    18.9 µM
C[C@]12CC[C@H]3[C@@H](CC=C4c5sc(-c6ccc(O)cc6)nc5CC[C@@]43C)[C@@H]1CC[C@@H]2O [III.5]    0.413 µM

Moving on to another compound below.
[ask] For C[C@]12CCc3sc(Nc4ccc(OC(F)(F)F)cc4)nc3C1=CC[C@@H]1[C@@H]2CC[C@]2(C)C(=O)CC[C@@H]12 [IIa.19] , write its GI50.
[reply] 0.7 µM

====

# Tested on: 60 different human tumor cell lines
# protocol.text: cells
# run.conditions: OVCAR-5, read-out: LC50
measurement.kind: CC50

Some solved entries appear below for comparison.
C[C@]12CCc3sc(Nc4ccc(F)cc4F)nc3C1=CC[C@@H]1[C@@H]2CC[C@]2(C)C(=O)CC[C@@H]12    > 100 µM
C[C@]12CC[C@H]3[C@@H](CC=C4c5sc(Nc6ccccc6)nc5CC[C@@]43C)[C@@H]1CC[C@@H]2O    34 µM
C[C@]12CC[C@H]3[C@@H](CC=C4c5sc(-c6ccc(O)cc6)nc5CC[C@@]43C)[C@@H]1CC[C@@H]2O    > 100 µM

[ask] For C[C@]12CCc3sc(NCCc4ccccc4)nc3C1=CC[C@@H]1[C@@H]2CC[C@]2(C)C(=O)CC[C@@H]12 , write its CC50.
[reply] > 100 µM

[ask] For C[C@]12CCc3sc(Nc4cccc(O)c4)nc3C1=CC[C@@H]1[C@@H]2CC[C@]2(C)C(=O)CC[C@@H]12 , write its CC50.
[reply] > 100 µM

====

# Tested on: 60 different human tumor cell lines
# run.conditions: read-out: LC50; SNB-19 (CNS Cancer), five dose
measurement.kind: CC50 (µM)
Report the value in µM with no unit label.

[ask] For C[C@]12CCc3nc(N)sc3C1=CC[C@@H]1[C@@H]2CC[C@]2(C)C(=NNC(N)=O)CC[C@@H]12 [IVb.1] , write its CC50.
[reply] 7.01

====

# System: 60 different human tumor cell lines
# protocol.text: NCI Development Therapeutics Program 60 cell line screen, one dose
# Type: cell-based
# run.conditions: Colon Cancer, KM12
Reported Growth Percent values for a set of molecules

Some solved entries appear below for comparison.
CN(c1ccccc1)c1nc2c(s1)CC[C@@]1(C)C2=CC[C@@H]2[C@@H]1CC[C@]1(C)C(=O)CC[C@@H]21    33.11%
C[C@]12CCc3sc(NCCc4ccccc4)nc3C1=CC[C@@H]1[C@@H]2CC[C@]2(C)C(=O)CC[C@@H]12    74.67%
C[C@]12CCc3sc(Nc4cccc(O)c4)nc3C1=CC[C@@H]1[C@@H]2CC[C@]2(C)C(=O)CC[C@@H]12    34.70%

Moving on to another molecule below.
[ask] Report Growth Percent from 60 different human tumor cell lines testing of C[C@]12CCc3sc(Nc4ccc(F)cc4F)nc3C1=CC[C@@H]1[C@@H]2CC[C@]2(C)C(=O)CC[C@@H]12
[reply] 57.14%

====

# Test system: NCI-H522 (NSCLC)
# protocol.text: NCI 60 one dose screen
# Type: cell-based, human
# run.conditions: Non-small Cell Lung Cancer
Reported Growth Percent values for a set of compounds
Report the value in % with no unit label.

Some solved entries appear below for comparison.
C[C@]12CCc3nc(N)sc3C1=CC[C@@H]1[C@@H]2CC[C@]2(C)C(=NNC(N)=O)CC[C@@H]12 [IVb.1]    −18.57
C[C@]12CCc3sc(Nc4cccc(O)c4)nc3C1=CC[C@@H]1[C@@H]2CC[C@]2(C)C(=O)CC[C@@H]12 [IIa.17]    −56.41
C[C@]12CCc3sc(Nc4ccc(OC(F)(F)F)cc4)nc3C1=CC[C@@H]1[C@@H]2CC[C@]2(C)C(=O)CC[C@@H]12 [IIa.19]    89.13
CN(c1ccccc1)c1nc2c(s1)CC[C@@]1(C)C2=CC[C@@H]2[C@@H]1CC[C@]1(C)C(=O)CC[C@@H]21 [IIa.6]    8.26
C[C@]12CCc3nc(Nc4ccc(O)cc4)sc3C1=CC[C@@H]1[C@@H]2CC[C@]2(C)C(=O)CC[C@@H]12 [IIa.35]    −55.25
C[C@]12CC[C@H]3[C@@H](CC=C4c5sc(-c6ccc(O)cc6)nc5CC[C@@]43C)[C@@H]1CC[C@@H]2O [III.5]    41.21

[ask] For C[C@]12CC[C@H]3[C@@H](CC=C4c5sc(Nc6ccccc6)nc5CC[C@@]43C)[C@@H]1CC[C@@H]2O [IIIa.10] , write its Growth Percent.
[reply] 25.77

[ask] For C[C@]12CCc3sc(NCCc4ccccc4)nc3C1=CC[C@@H]1[C@@H]2CC[C@]2(C)C(=O)CC[C@@H]12 [IIa.2] , write its Growth Percent.
[reply] 44.08

[ask] For C[C@]12CCc3sc(Nc4ccc(F)cc4F)nc3C1=CC[C@@H]1[C@@H]2CC[C@]2(C)C(=O)CC[C@@H]12 [IIa.10] , write its Growth Percent.
[reply] 42.56
